# TARGET: Cysteinyl leukotriene receptor 1 (Cavia porcellus, UniProt Q2NNR5)
# Sequence (Q2NNR5 whole entry): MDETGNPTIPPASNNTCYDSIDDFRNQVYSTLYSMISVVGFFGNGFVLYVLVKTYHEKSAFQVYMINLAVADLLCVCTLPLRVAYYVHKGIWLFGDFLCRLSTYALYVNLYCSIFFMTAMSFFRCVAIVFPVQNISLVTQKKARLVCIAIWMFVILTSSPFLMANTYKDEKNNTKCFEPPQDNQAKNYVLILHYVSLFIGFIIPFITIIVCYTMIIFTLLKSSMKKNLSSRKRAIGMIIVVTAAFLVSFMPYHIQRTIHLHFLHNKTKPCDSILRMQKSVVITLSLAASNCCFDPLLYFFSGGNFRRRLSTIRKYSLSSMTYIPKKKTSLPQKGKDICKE
# ASSAY METHOD TEXT: Antagonism of Cysteinyl leukotriene receptor 1 from guinea pig lung membranes
OBSERVED PROPERTY: Ki (nM)
Numbers only; they are read as nM.

Param readout = Ki; param system = Cysteinyl leukotriene receptor 1 (Cavia porcellus, UniProt Q2NNR5); param query = O=C(O)c1cccc(C[C@@H]2COc3ccc(OCc4nc5cc(F)ccc5s4)cc3[C@@H]2O)c1 ; response: value 14

Next compound: COc1ccc(NS(=O)(=O)C(F)(F)F)cc1C[C@H]1[C@@H](O)c2cc(OCc3ccc4ccc(Cl)cc4n3)ccc2OC1(C)C 4

Next compound: COc1ccc(NS(=O)(=O)C(F)(F)F)cc1C[C@H]1[C@@H](O)c2cc(/C=C/c3ccc4ccc(Cl)cc4n3)ccc2OC1(C)C 5

Next compound: COc1ccc(NS(=O)(=O)C(F)(F)F)cc1C[C@H]1[C@@H](O)c2cc(OCc3nc4cc(F)c(F)cc4s3)ccc2OC1(C)C 2

Next compound: CC1(C)Oc2ccc(OCc3nc4cc(F)c(F)cc4s3)cc2[C@H](O)[C@@H]1Cc1cccc(NS(=O)(=O)C(F)(F)F)c1 7

Next compound: CC1(C)Oc2ccc(OCc3nc4cc(F)c(F)cc4s3)cc2[C@H](O)[C@@H]1Cc1cc(NS(=O)(=O)C(F)(F)F)ccc1Cl 4
